I'd appreciate it if you could supply IC50 values for the items below.
Biological target: EBP (Homo sapiens)
Construct: HEK293T cells were utilized as the source of EBP enzyme; endogenous in cells
Experiment: EBP Functional Assay (EBP immunoaffinity LC-MS assay)
Settings: HEK293T cells as source of EBP enzyme; substrate zymosterol-d5, 37° C. for 4 h; percent conversion to dehydrolathosterol-d5 by LC-APCI MRM MS

IC50 recorded for this molecule, COc1ccc(S(=O)(=O)N2CCC3(CCC(N4CC5(COC5)C4)C3)CC2)cc1F (stereo not shown) [Example 10] , is 100 to 250 nM

IC50 recorded for this molecule, COCCNC1COC2(CCN(S(=O)(=O)c3cc(C4CC4)nn3C)CC2)C1 (stereo not shown) [Example 59] , is 250 to 1500 nM

IC50 recorded for this molecule, Cc1cc(S(=O)(=O)N2CCC3(CC[C@H](N4CCOCC4)C3)CC2)n(C)n1 (single isomer, unassigned) [Example 22b] , is 100 to 250 nM

IC50 recorded for this molecule, O=S(=O)(c1ccc(F)cc1)N1CCC2(CC1)CC(N1CC3(COC3)C1)CO2 (stereo not shown) [Example 8] , is 250 to 1500 nM

IC50 recorded for this molecule, COCCN(C)C1CC2(CCN(S(=O)(=O)c3cc(C)nn3C)CC2)C1 [Example 91] , is 250 to 1500 nM

IC50 recorded for this molecule, O=S(=O)(c1ccc2ncc(F)cc2c1)N1CCC2(CCC(N3CC4(COC4)C3)C2)CC1 (stereo not shown) [Example 133] , is 100 to 250 nM

IC50 recorded for this molecule, CCOc1ccc(S(=O)(=O)N2CCC3(CCC(N4CC5(COC5)C4)C3)CC2)cc1 (stereo not shown) [Example 108] , is 250 to 1500 nM

IC50 recorded for this molecule, Cn1nc(C2CC2)cc1S(=O)(=O)N1CCC2(CC1)CC(N1CC3(COC3)C1)CO2 (stereo not shown) [Example 56] , is 100 to 250 nM

IC50 recorded for this molecule, O=S(=O)(c1ccc(OC(F)F)cc1)N1CCC2(CC1)CC(N1CCCCC1)CO2 (stereo not shown) [Example 14] , is 250 to 1500 nM

IC50 recorded for this molecule, COCCNC1COC2(CCN(S(=O)(=O)c3ccc(C)cc3C)CC2)C1 (stereo not shown) [Example 116] , is 250 to 1500 nM

IC50 recorded for this molecule, COc1ncc(C)cc1S(=O)(=O)N1CCC2(CCC(NC3(C)COC3)C2)CC1 (stereo not shown) [Example 41] , is 100 to 250 nM

IC50 recorded for this molecule, [2H]C([2H])([2H])N(CCOC)C1COC2(CCN(S(=O)(=O)c3cc(C)cnc3OC)CC2)C1 (stereo not shown) [Example 66] , is 250 to 1500 nM

IC50 recorded for this molecule, Cc1ccc(S(=O)(=O)N2CCC3(CCC(N4CC5(COC5)C4)C3)CC2)cc1C#N (stereo not shown) [Example 128] , is < 100 nM

IC50 recorded for this molecule, COc1cc(S(=O)(=O)N2CCC3(CC2)CC(N2CC4(COC4)C2)CO3)c(F)cn1 (stereo not shown) [Example 115] , is 250 to 1500 nM

IC50 recorded for this molecule, Cc1cc(S(=O)(=O)N2CCC3(CC2)CC(N2CC4(COC4)C2)C3)n(C)n1 [Example 92] , is 100 to 250 nM

IC50 recorded for this molecule, O=S(=O)(c1ccc(F)cc1)N1CCC2(CCC(N3CC4(COC4)C3)C2)CC1 (stereo not shown) [Example 12] , is < 100 nM

IC50 recorded for this molecule, Cn1nc(C2CC2)cc1S(=O)(=O)N1CCC2(CC1)C[C@H](N1CC3(COC3)C1)CO2 (single isomer, unassigned) [Example 57b] , is 250 to 1500 nM

IC50 recorded for this molecule, Cc1cc(S(=O)(=O)N2CCC3(CCC(N4CC5(COC5)C4)C3)CC2)n(C)n1 (stereo not shown) [Example 142] , is 100 to 250 nM

IC50 recorded for this molecule, COc1ccc(S(=O)(=O)N2CCC3(CC2)CC(N(C)C2CC4(COC4)C2)CO3)c(F)c1 (stereo not shown) [Example 136] , is 100 to 250 nM

IC50 recorded for this molecule, Cn1nc(C(F)(F)F)cc1S(=O)(=O)N1CCC2(CC1)CC(NC1CC3(COC3)C1)CO2 (stereo not shown) [Example 139] , is 100 to 250 nM

IC50 recorded for this molecule, O=S(=O)(c1coc(C(F)(F)F)c1)N1CCC2(CCC(N3CC4(COC4)C3)C2)CC1 (stereo not shown) [Example 101] , is < 100 nM

IC50 recorded for this molecule, COc1ncc(Cl)cc1S(=O)(=O)N1CCC2(CC1)CC(N1CC3(COC3)C1)CO2 (stereo not shown) [Example 62] , is 250 to 1500 nM

IC50 recorded for this molecule, COCCNC1COC2(CCN(S(=O)(=O)c3cc(C)cnc3OC)CC2)C1 (stereo not shown) [Example 65] , is 100 to 250 nM

IC50 recorded for this molecule, COc1ncc(Cl)cc1S(=O)(=O)N1CCC2(CC1)C[C@@H](N1CC3(COC3)C1)CO2 (single isomer, unassigned) [Example 63a] , is < 100 nM

IC50 recorded for this molecule, COc1ncc(C)cc1S(=O)(=O)N1CCC2(CC1)CC(N1CC3(COC3)C1)CO2 (stereo not shown) [Example 117] , is 250 to 1500 nM

====

Biological target: EBP (Homo sapiens, UniProt Q15125)
Construct: HEK293T cells were utilized as the source of EBP enzyme; endogenous in cells; host or cells: HEK293T
Sequence (Q15125 whole entry): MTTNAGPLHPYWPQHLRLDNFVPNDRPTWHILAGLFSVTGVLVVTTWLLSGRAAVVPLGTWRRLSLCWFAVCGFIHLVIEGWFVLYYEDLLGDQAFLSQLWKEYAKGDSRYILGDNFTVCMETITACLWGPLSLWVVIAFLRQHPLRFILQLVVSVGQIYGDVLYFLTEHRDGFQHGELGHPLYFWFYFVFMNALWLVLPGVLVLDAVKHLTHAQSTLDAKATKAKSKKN
Assay: EBP Functional Assay (EBP immunoaffinity LC-MS assay)
Assay type: biochemical
Details: HEK293T cells as source of EBP enzyme; substrate zymosterol-d5, 37° C. for 4 h; percent conversion to dehydrolathosterol-d5 by LC-APCI MRM MS
pIC50: −log10 of the molar value.
readout: pIC50

pIC50 recorded for this compound, O=S(=O)(c1cc(F)cc(F)c1)N1CCC2(CC1)C[C@@H](N1CC3(COC3)C1)CO2 (single isomer, unassigned) [Example 119b] , is 6.60 to 7.00

pIC50 recorded for this compound, N#Cc1ccc(F)c(S(=O)(=O)N2CCC3(CC2)CC(N2CCCCC2)CO3)c1 (centres unmarked) , is 6.60 to 7.00

pIC50 recorded for this compound, Cc1cc(C(F)(F)F)ncc1S(=O)(=O)N1CCC2(CC1)CC(N1CCOCC1)CO2 (centres unmarked) , is 5.82 to 6.60

pIC50 recorded for this compound, COc1ccc(S(=O)(=O)N2CCC3(CCC(N4CC5(COC5)C4)C3)CC2)c(F)c1 (centres unmarked) , is > 7.00

pIC50 recorded for this compound, COCCNC1COC2(CCN(S(=O)(=O)c3cc(C#N)ccc3F)CC2)C1 (centres unmarked) , is 5.82 to 6.60

pIC50 recorded for this compound, Cc1ccc(S(=O)(=O)N2CCC3(CC2)CC(N2CC(C)(O)C2)CO3)c(Cl)c1 (centres unmarked) , is 6.60 to 7.00

pIC50 recorded for this compound, Cn1nc(C(F)(F)F)cc1S(=O)(=O)N1CCC2(CC1)CC(N1CCOCC1)CO2 (single isomer, unassigned) , is 5.82 to 6.60

pIC50 recorded for this compound, N#Cc1ccc(Cl)c(S(=O)(=O)N2CCC3(CC2)CC(N2CC4(COC4)C2)CO3)c1 (centres unmarked) , is 5.82 to 6.60
